The origin of these recorded values is PubChem BioAssay (NCI).

test system: HOP-92 NSCLC; assay: NCI tumour cell line growth inhibition, 48 h
Each entry below lists one item and its recorded TGI value.

Here is how some molecules turned out for TGI.
>>> measurement("COc1ccc(OC)c(Nc2nc(-c3c(C)nc4sccn34)cs2)c1")
"98.4 µM"
>>> measurement("COc1ccc(Nc2cc(C)nc(N3CCN(c4ccnc5cc(Cl)ccc45)CC3)n2)cc1")
"5.59 µM"

Qu. Provide measured TGI on HOP-92 NSCLC for O=C(O)CCSC(=O)Nc1ccc(N=Nc2ccccc2)cc1 please.
Ans. > 100 µM

Qu. Lab note: HOP-92 NSCLC assay, enter TGI for COC(=O)c1ccc(NCc2cc(O)ccc2O)cc1 here
Ans. 29.1 µM
